Source listed as patent US20240400614A1.

- TESTED SYSTEM: uPA (Homo sapiens)
- ASSAY METHOD TEXT: FRET peptide cleavage efficiency with uPA
- Format: biochemical
- EXPERIMENTAL SETUP: t = 60 min; 200 uM linker, 1 ug/ml protease, 37° C., buffer A pH 8.5
Square brackets hold non-standard residues; d marks the D form. Ends that are not written are not given here. Tyr(3-NO2) = N[C@@H](Cc1ccc(O)c([N+](=O)[O-])c1)C(=O)O; 2Abz = Nc1ccccc1C(=O)O
MEASURED QUANTITY: % cleavage uPA t = 60 min
A complete answer gives the number and then names the unit.

Field request: % cleavage uPA t = 60 min | item: KSKQHSL ([2Abz]KSKQHSL[Tyr(3-NO2)]-NH2) [LNK077] 0%
